Assay: Stability in solution (half-life by HPLC)
Conditions: 5% dextrose, pH 4
assay_readout: half-life at 100 µM (h)
Output spec: scalar in h, unitless text.

# half-life at 100 µM lookup, item CN(CO)c1nc(N(C)CO)nc(N(C)CO)n1 [Trimelamol, reference compound]
5.8

====

System: H69 human small cell lung cancer
Assay: MTT cytotoxicity assay, H69
Assay type: cell-based
Settings: CB7646 prepared by recrystallisation method of Example 2, read-out: IC50 (repeat, recrystallised preparation)
assay_readout: IC50
Report as: number unit

Value wanted: IC50 (H69 human small cell lung cancer) of entry CNc1nc(N(C)CO)nc(N(C)CO)n1
16.5 µM

====

System: Walker 256 rat mammary carcinoma
Assay: MTT cytotoxicity assay, Walker 256
Type: cell-based
Conditions: Walker 256, CB7646 prepared by recrystallisation method of Example 2, read-out: IC50 (repeat, recrystallised preparation)
assay_readout: pIC50
pIC50 here is simply -log10 of the concentration when that concentration is written in mol/L.

# pIC50 lookup, item CNc1nc(N(C)CO)nc(N(C)CO)n1 [CB7646]
4.98

====

Assay: Stability in solution (half-life by HPLC)
Details: deionised water, pH 7.5, T^1/2, Deionised water, pH 7.5, r.t.
assay_readout: half-life at 100 µM
Report as: number unit

# half-life at 100 µM lookup, item CNc1nc(N(C)CO)nc(N(C)CO)n1
18 h

====

Assay: Lethality (LD50) in mice
Conditions: mouse, in vivo, Example 7 (repeat of Example 6)
Text: The anti-tumour activity of CB 7646 prepared in accordance with Example 1 against ADJ/PC6 tumour in mice were compared with that of trimelamol. An implant of 1 mm^3 of tumour was made on day 1. On day 20, animals bearing tumours of comparative size were placed into groups of 4 and treated with drug on 5 consecutive days, and then left until day 30. Tumours from the treated and controls were dissected and weighed as a measure of tumour growth. Compounds were given in 5% DMSO/dextrose. […]
assay_readout: LD50 (mg/kg)
Output spec: scalar in mg/kg, unitless text.

CN(CO)c1nc(N(C)CO)nc(N(C)CO)n1 [Trimelamol, reference compound] | 70

# LD50 lookup, item CNc1nc(N(C)CO)nc(N(C)CO)n1
142

====

Assay: Stability in solution (half-life by HPLC)
Settings: deionised water, pH 7.5
assay_readout: half-life at 100 µM (h)
Output spec: scalar in h, unitless text.

# half-life at 100 µM lookup, item CN(CO)c1nc(N(C)CO)nc(N(C)CO)n1 [Trimelamol, reference compound]
2

====

Test system: PC6 murine plasmacytoma
Assay: MTT cytotoxicity assay, PC6
Format: cell-based
Settings: Mus musculus, continual drug exposure, parenthesis = standard deviation or ± values
Protocol: The cytotoxicity of CB7646 and CB7683 was compared with trimelamol against mammalian tumour cell lines using the MTT assay. This assay is based upon the selective ability of living but not dead cells to reduce the tetrazolium salt MTT (3-[4,5-dimethylthiazol-2-yl]-25-diphenyl tetrazolium bromide) to purple formazan (Mosmann et al, 1983, J. Immun. Methods 65; 55-63; Carmichael et al (1987) Cancer Res. 47; 936-942). Cell lines were grown in culture with continual drug exposure. […]
Quick list: pIC50 per entry.
pIC50 here is simply -log10 of the concentration when that concentration is written in mol/L.

# pIC50 lookup, item CNc1nc(N(C)CO)nc(N(C)CO)n1
4.60

# pIC50 lookup, item OCN(CC(F)(F)F)c1nc(NCC(F)(F)F)nc(N(CO)CC(F)(F)F)n1
4.50

# pIC50 lookup, item CN(CO)c1nc(N(C)CO)nc(N(C)CO)n1 [Trimelamol, reference compound]
4.89

These measurements were taken from patent US5854244A.
